Origin of values: patent US20120029177A1

tested on: SNU-C4 xenografted nude mice; experiment: Biodistribution study in SNU-C4 xenografted nude mice after intravenous injection; type: in vivo, mouse; details: lung, 1 hr after intravenous injection
Measure name: % ID/g Lung
Please state the value followed by its unit.

The cases that follow already have their % ID/g Lung on record.
1. N[C@@H](CN1CCN(CC(=O)[O-])CCN(CC(=O)[O-])CCN(CC(=O)[O-])CC1)C(=O)O.[68Ga+3] (stereo in doubt) [^68Ga-DO3A-ala] | 8.40 ± 1.17 % ID/g
2. O=C([O-])CN1CCNCCN(CC(=O)[O-])CCNCC1.[68Ga+3] [^68Ga-DO2A, reference compound] | 1.32 ± 0.35 % ID/g
3. NC(CN1CCN(CC(=O)[O-])CCNCCN(CC(=O)[O-])CC1)C(=O)[O-].[68Ga+3] (stereo not shown) [^68Ga-DO2A-ala] | 4.21 ± 1.47 % ID/g

Turning now to a further record.
Ask | What value of % ID/g Lung has been reported for the following compound? O=C([O-])CN1CCNCCN(CC(=O)[O-])CCN(CC(=O)[O-])CC1.[68Ga+3] [^68Ga-DO3A, reference compound]
Reply | 1.26 ± 0.28 % ID/g
